details: mouse, in vivo, iv, 3 mg/kg
PROPERTY_LABEL: MRT inf (min)
Respond numerically; units are min and should not be typed.

Query: Which MRT inf value belongs to Ac-PSRLEEELRRRLTE-NH2 [SD14316] ?
Response: 4

====

test: Plasma stability, mouse plasma; conditions: mouse plasma, 37° C., timepoint 0 h
Bridge positions count the residues as written; N and C are the ends. Peptide text beside a SMILES is read from it.
PROPERTY_LABEL: Tube 2 (compound concentration)

Query: Which Tube 2 (compound concentration) value belongs to CC(=O)N[C@@H](CO)C(=O)N[C@@H](CCCNC(=N)N)C(=O)N[C@@H](CC(C)C)C(=O)N[C@@H](CCC(=O)O)C(=O)N[C@H]1CCC(=O)NCCCC[C@@H](C(=O)N[C@@H](CCCNC(=N)N)C(=O)N[C@@H](CCCNC(=N)N)C(=O)N[C@@H](CC(C)C)C(=O)N[C@H](C(=O)N[C@@H](CCC(=O)O)C(N)=O)[C@@H](C)O)NC(=O)[C@H](CC(C)C)NC(=O)[C@H](CCC(=O)O)NC1=O [SD15192] (Ac-SRLEEELKRRLTE-NH2; lactam 5-8) ?
Response: 2.705

Query: Which Tube 2 (compound concentration) value belongs to CC(=O)N[C@@H](CO)C(=O)N[C@@H](CCCNC(=N)N)C(=O)N[C@@H](CC(C)C)C(=O)N[C@@H](CCC(=O)O)C(=O)N[C@H]1CCC(=O)NCCCC[C@@H](C(=O)N[C@@H](CCCNC(=N)N)C(=O)N[C@@H](CC(C)C)C(=O)N[C@H](C(=O)N[C@@H](CCC(=O)O)C(N)=O)[C@@H](C)O)NC(=O)[C@H](CCCNC(=N)N)NC(=O)[C@H](CC(C)C)NC(=O)[C@H](CCC(=O)O)NC1=O [SD15194] (Ac-SRLEEELRKRLTE-NH2; lactam 5-9) ?
Response: 2.488

Query: Which Tube 2 (compound concentration) value belongs to CC(=O)N1CCC[C@H]1C(=O)N[C@@H](CO)C(=O)N[C@@H](CCCNC(=N)N)C(=O)N[C@@H](CC(C)C)C(=O)N[C@@H](CCC(=O)O)C(=O)N[C@H]1CCCCNC(=O)CC[C@@H](C(=O)N[C@@H](CCCNC(=N)N)C(=O)N[C@@H](CC(C)C)C(=O)N[C@H](C(=O)N[C@@H](CCC(=O)O)C(N)=O)[C@@H](C)O)NC(=O)[C@H](CCCNC(=N)N)NC(=O)[C@H](CC(C)C)NC(=O)[C@H](CCC(=O)O)NC1=O [SD15805] (Ac-PSRLEKELRERLTE-NH2; lactam 6-10) ?
Response: 2.811
